Data credit: PubChem BioAssay (NCI)

System: A498 renal
experiment.notes: NCI tumour cell line growth inhibition, 48 h; in the data active = GI50 below about 0.43 µM; inactive = the rest
Response enum: t for active, f for inactive

Some solved entries appear below for comparison.
[
  {
    "compound": "C[C@]12CC[C@@H]3c4ccc(O)c([N+](=O)[O-])c4CC[C@H]3[C@@H]1CC[C@@H]2NS(=O)(=O)c1cccc(Br)c1",
    "assigned.class": "f"
  },
  {
    "compound": "O=C(CSC(c1ccccc1)c1ccccc1)N/N=C/c1ccco1",
    "assigned.class": "f"
  },
  {
    "compound": "COc1ccc(/C=C(/c2ccccc2)[N+](=O)[O-])cc1",
    "assigned.class": "f"
  },
  {
    "compound": "Nc1ccccc1SC1CC(=O)N(c2ccc(Cl)c(Cl)c2)C1=O (stereo not drawn)",
    "assigned.class": "f"
  },
  {
    "compound": "C/C(=N\\NC(=S)N1CC2CCC(CC2)C1)c1ccccn1",
    "assigned.class": "t"
  },
  {
    "compound": "CCCCCCCCCCN1CCC(N2CCCCC2)CC1",
    "assigned.class": "f"
  },
  {
    "compound": "O=C(NCc1ccc(S(=O)(=O)c2cc(F)cc(F)c2)cc1)c1ccc2nccn2c1",
    "assigned.class": "f"
  }
]

Identify the outcome logged in this assay for the compound shown: O=C(NO)c1ccc(CN(c2cnccn2)c2cnccn2)cc1
f

###

Quick reference: TGI of the listed items.
Tested on: SK-OV-3 ovarian
experiment.notes: NCI tumour cell line growth inhibition, 48 h
Reply with just the number (in µM).

Sample answers from the record:
[
  {
    "compound": "COC(=O)CCC1=C(CC(=O)OC)C(C)=N/C1=C\\c1[nH]c(-c2ccc[nH]2)cc1OC",
    "experimental.value": 28.4
  },
  {
    "compound": "CC1=C(C(=O)Nc2ccccc2)C(c2ccc(C3C(C(=O)Nc4ccccc4)=C(C)NC(C)=C3C(=O)Nc3ccccc3)cc2)C(C(=O)Nc2ccccc2)=C(C)N1",
    "experimental.value": 26.2
  }
]

Noted for C/C(=N\NC(=S)N1CC2CCC(CC2)C1)c1ccccn1 : its TGI reads 1.01

Noted for COC(=O)C1OC(O[C@H]2CC[C@]3(C)[C@H]4CC=C5[C@@H]6CC(C)(C)CC[C@]6(C(=O)OC6OCC(O)C(O)C6OC6OC(C)C(OC7OCC(OC8OCC(O)C(O)C8O)C(O)C7O)C(O)C6O)[C@H](O)C[C@@]5(C)[C@]4(C)CC[C@H]3C2(C)C)C(O)C(O)C1O (stereo partly specified) : its TGI reads 28.1

Noted for CCOc1ccccc1NC(=O)C(C#N)C1=C(Cl)C(=O)c2ccccc2C1=O (stereo unspecified) : its TGI reads 41.5

Noted for Nc1nc(Nc2ccc(Cl)cc2)sc1C(=O)c1cccs1 : its TGI reads 50

Noted for OC1(c2ccc(Cl)cc2)c2ccc(CN3CCCC3)cc2C2=NCCN21 (stereo unspecified) : its TGI reads 27.3

Noted for COC(=O)C1=C(C)NC(C)=C([N+](=O)[O-])C1c1cccc(N=O)c1 (stereo unspecified) : its TGI reads 46.6

Noted for OCCNCCOc1ccc(/C(=C(/Cl)c2ccccc2)c2ccccc2)cc1 : its TGI reads 10.4

###

Quick reference: TGI of the listed items.
System: MDA-MB-435
experiment.notes: NCI tumour cell line growth inhibition, 48 h
Reply with just the number (in µM).

[
  {
    "molecule": "CCCCCCCCCCCCOC1C(C(CC(=O)NCCN2CCCC2)NS(=O)(=O)c2cc(Cl)cc(Cl)c2)OC2OC(C)(C)OC21 (stereo not given)",
    "experimental.value": 3.03
  }
]

# ---- query molecule ----
Noted for COC(=O)C1=C(C)NC(C)=C([N+](=O)[O-])C1c1cccc(N=O)c1 (stereo not given) : its TGI reads 25.4

###

Quick reference: TGI of the listed items.
Tested on: DU-145 prostate
experiment.notes: NCI tumour cell line growth inhibition, 48 h

The recorded TGI with DU-145 prostate for CC[C@@]1(O)C(=O)OCc2c1cc1n(c2=O)Cc2c-1nc1cc(F)c(C)c3c1c2[C@@H](N)CC3 was > 100 µM

The recorded TGI with DU-145 prostate for O=C(Nc1ccc(-n2cc(-c3ccncc3)c(-c3ccc(O)c(Cl)c3)n2)cc1)Nc1cccc(Cl)c1Cl was > 32.5 µM

The recorded TGI with DU-145 prostate for OC1(c2ccc(Cl)cc2)c2ccc(CN3CCCC3)cc2C2=NCCN21 (stereo unspecified) was 32.2 µM

The recorded TGI with DU-145 prostate for O=C1CCc2ccc3c(c21)CC1(Cc2ccccc2C1)C3 was > 100 µM

The recorded TGI with DU-145 prostate for CC1C(c2ccc3c(c2)OCO3)c2cc3c(cc2OC1N1CCOCC1)OCO3 (stereo unspecified) was > 100 µM

The recorded TGI with DU-145 prostate for O=[N+]([O-])c1ccc(CSCc2ccc(Cl)cc2)cc1 was > 100 µM

###

Quick reference: TGI of the listed items.
Tested on: HT29 colon
experiment.notes: NCI tumour cell line growth inhibition, 48 h

Sample answers from the record:
[
  {
    "compound": "O=C(O)CSc1n[nH]c(Cc2ccccc2)n1",
    "experimental.value": "> 100 µM"
  },
  {
    "compound": "CN1COCc2cc3cc4c(cc3nc21)OCCO4",
    "experimental.value": "> 100 µM"
  },
  {
    "compound": "Cc1ccc(-c2c(C#N)c(-c3ccc([N+](=O)[O-])cc3)c(C#N)c(=O)n2NS(=O)(=O)c2ccccc2)cc1",
    "experimental.value": "> 100 µM"
  },
  {
    "compound": "N#Cc1ccc(OC(=O)Nc2ccc(Cl)c(Cl)c2)cc1",
    "experimental.value": "28.6 µM"
  },
  {
    "compound": "COc1ccc2c3c(Nc4ccc(/C(C)=N/O)cc4)[nH]c4ccccc4c-3c(N=O)c2c1",
    "experimental.value": "33.7 µM"
  }
]

# ---- query compound ----
Noted for O=C(O)c1ccc2c(c1)CC1(C2)Cc2cc3c(cc2C1=O)CCC3 (stereo unspecified) : its TGI reads > 100 µM

###

Tested on: HCC-2998 colon
experiment.notes: NCI tumour cell line growth inhibition, 48 h
reported.metric: TGI

Sample answers from the record:
[
  {
    "molecule": "CC1=CC(=O)C(C(O)(C(F)(F)F)C(F)(F)F)C(C)(C)C1 (stereo not given)",
    "experimental.value": "> 10 µM"
  },
  {
    "molecule": "O=C1CSC(c2ccc(-c3nc4ccccc4s3)cc2)=N1",
    "experimental.value": "78.5 µM"
  },
  {
    "molecule": "Cc1c(C#N)c(N)n(C2OCC(O)C(O)C2O)c(=S)c1C#N (stereo not given)",
    "experimental.value": "> 100 µM"
  },
  {
    "molecule": "COC(=O)/C(=C\\c1ccc(N(CCC#N)CCC#N)cc1)NC(=O)c1cc([N+](=O)[O-])ccc1Cl",
    "experimental.value": "> 100 µM"
  },
  {
    "molecule": "Nc1ccc2nc3n(c2c1)C(=O)c1ccccc1-3",
    "experimental.value": "> 100 µM"
  }
]

Noted for c1ccc(-c2cnc(-c3ccc(-c4ncc(-c5ccccc5)o4)cc3)o2)cc1 : its TGI reads > 100 µM

Noted for N.N.NCCCCCCCCCN.O=C([O-])CC(=O)[O-].O=C([O-])CC(=O)[O-].[Pt+4].[Pt+4] : its TGI reads > 100 µM

Noted for O=C(O)c1c2c(cc3c1CC1(Cc4ccccc4C1=O)C3)CCC2 (stereo not given) : its TGI reads 13.4 µM

Noted for Cc1cn([C@H]2C[C@](C)(CO)N(C)O2)c(=O)[nH]c1=O : its TGI reads > 100 µM

Noted for O=C(O)CSC(NC(=O)C(C(F)(F)F)C(F)(F)F)(C(F)(F)F)C(F)(F)F : its TGI reads > 100 µM

Noted for CC(C)(C)C(=O)C(Cc1ccccc1)C(=O)C(C)(C)C : its TGI reads > 100 µM

Noted for COc1cc(C(=O)C/C(CCC(=O)Nc2ccc(Cl)cc2Cl)=N/NC(=O)C(=O)NN)ccc1O : its TGI reads > 100 µM

Noted for c1ccc(C2=Nn3c(CCCCCCCCc4nnc5n4N=C(c4ccccc4)CS5)nnc3SC2)cc1 : its TGI reads > 100 µM

Noted for O=C1CC(Sc2nc3ccc(I)cc3c(=O)n2Cc2ccccc2)C(=O)NN1 (stereo not given) : its TGI reads 31.8 µM

Noted for C=C(C)[C@@]1(O[Si](C)(C)C)CCCC[C@@H]1CC(Sc1ccccc1)Sc1ccccc1 : its TGI reads 29.8 µM

###

Tested on: OVCAR-3 ovarian
experiment.notes: NCI tumour cell line growth inhibition, 48 h
reported.metric: TGI

Sample answers from the record:
[
  {
    "compound": "CC(=O)OCCOCNC(=S)N/N=C/c1ccc(Br)s1",
    "experimental.system": "OVCAR-3 ovarian",
    "experimental.value": "> 100 µM"
  },
  {
    "compound": "O=[N+]([O-])c1ccc(CSCc2ccc(Cl)cc2)cc1",
    "experimental.system": "OVCAR-3 ovarian",
    "experimental.value": "> 100 µM"
  },
  {
    "compound": "c1ccc(C2=Nn3c(CCCCCCCCc4nnc5n4N=C(c4ccccc4)CS5)nnc3SC2)cc1",
    "experimental.system": "OVCAR-3 ovarian",
    "experimental.value": "> 100 µM"
  },
  {
    "compound": "CC1C(=O)OC2CC[N+]3([O-])CC=C(COC(=O)C(C)(O)C1(C)O)C23 (centres undefined)",
    "experimental.system": "OVCAR-3 ovarian",
    "experimental.value": "> 100 µM"
  },
  {
    "compound": "COc1cc(OCc2ccc3nc(OC)c(OC)nc3c2)cc(OC)c1OC",
    "experimental.system": "OVCAR-3 ovarian",
    "experimental.value": "> 10 µM"
  },
  {
    "compound": "N.N.NCCCCCCCCCN.O=C([O-])CC(=O)[O-].O=C([O-])CC(=O)[O-].[Pt+4].[Pt+4]",
    "experimental.system": "OVCAR-3 ovarian",
    "experimental.value": "> 100 µM"
  },
  {
    "compound": "O=C1CS(=O)C23c4cc5ccccc5n4CCC2CCCN13 (centres undefined)",
    "experimental.system": "OVCAR-3 ovarian",
    "experimental.value": "> 100 µM"
  },
  {
    "compound": "Cc1ccc(S(=O)(=O)NC(=O)NC2=NC(C)(C)N(c3ccc(Cl)c(Cl)c3)C(N)=N2)cc1",
    "experimental.system": "OVCAR-3 ovarian",
    "experimental.value": "> 100 µM"
  },
  {
    "compound": "CC1=C(c2cc(C(=O)Nc3ccc(Cl)cc3)nc(=S)[nH]2)Sc2ccccc2N1",
    "experimental.system": "OVCAR-3 ovarian",
    "experimental.value": "> 100 µM"
  },
  {
    "compound": "Cc1c(C#N)c(N)n(C2OCC(O)C(O)C2O)c(=S)c1C#N (centres undefined)",
    "experimental.system": "OVCAR-3 ovarian",
    "experimental.value": "> 100 µM"
  }
]

Noted for Clc1ccc(Cl)c(SCCCN2CCNCC2)c1 : its TGI reads 47.4 µM

Noted for Cc1cccc(N=C2NC(=O)C(CC(=O)Nc3cccc(C)c3C)S2)c1 (centres undefined) : its TGI reads > 100 µM

Noted for Clc1cc(Cl)cc(Nc2ccc3cc(OCCCN4CCOCC4)ccc3n2)c1 : its TGI reads 6.4 µM

Noted for O=C1CC(Sc2nc3ccc(I)cc3c(=O)n2Cc2ccccc2)C(=O)NN1 (centres undefined) : its TGI reads 31.2 µM
